Reference source: patent US7056679B2

# ASSAYED TARGET: DGI-2 (Homo sapiens, UniProt Q15004)
# Construct: encompassed the entire DGI-2 open reading frame (ORF); His-tag of vector pIVEX2.3-MCS (inferred from the vector and from the reverse primer lacking a stop codon); made in house; host or cells: cell-free in vitro translation (Rapid Translation System RTS, Roche; E. coli lysate)
# Sequence (Q15004 1-111): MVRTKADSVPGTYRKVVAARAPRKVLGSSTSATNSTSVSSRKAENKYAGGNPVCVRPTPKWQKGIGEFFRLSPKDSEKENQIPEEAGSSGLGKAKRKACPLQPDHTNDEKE
# PROTOCOL DESCRIPTION: ELISA analysis of phage on DGI-2 polypeptide (specific binding)
# DETAILS: binding to DGI-2 polypeptide (specific binding); phage ELISA units read at 405 nm
MEASUREMENT KIND: DGI-2 (OD)

1. VLGADAGMIWFMDGCGIRCR (DGI-2-20R-4-E6; listed as Escherichia coli) : 7.0

A = LAPMFLQNQVRTWAASRRPLPAGPSNARCETGSLSPWVPC (DGI-2-40F-3-B11; listed as Escherichia coli)
B = VVHTRAWGSWAYGFVLRNRG (DGI-2-20F-PP-F10; listed as Escherichia coli)
Field: lower recorded DGI-2 (OD) (choose A or B ) Answer = label.
A
(A: 1.8 OD, B: 3.5 OD)

1 = ALRSLGSGGFGWQAGRASPQGMTHFPYFGWSGMPTARVRP (DGI-2-40F-3-D7; listed as Escherichia coli)
2 = SRPGWCSRGTAWGFPGCSSS (DGI-2-20R-3-C4; listed as Escherichia coli)
Compare DGI-2 (OD): is it lower for 1 or for 2 ? Refer to your chosen item by its label in the answer.
1
(1: 2.6 OD, 2: 4.5 OD)

1 = MAVLPAARDFGGVVQGGVSG (DGI-2-20F-3-C2; listed as Escherichia coli)
2 = DAGIGWVGSMWFPPGCIGAC (DGI-2-20R-4-E82; listed as Escherichia coli)
3 = SRELGKWGRLWQDWSSGNFS (DGI-2-20R-3-C11; listed as Escherichia coli)
Arrange items by their DGI-2 (OD) values in increasing order. Output spec: a listing of the labels in the requested order.
1, 2, 3
